Just for reference, patent US20210283212A1 is where these values come from.

# target_of_assay: human C5 protein (human, UniProt P01031 19-673; P01031 678-1676)
# measurement_description: cell-based or functional assay
Positions of bridges follow the written chain, without caps; N, C: chain ends. Non-standard residues stand in square brackets, D forms with d. Primed or numbered codes have the meaning given here. No end group written: not given here. mXylyl(3) = bridging moiety between the two residues given in brackets; mXylyl″ = bridging moiety between the two marked residues; Trp(7-aza) = N[C@@H](Cc1c[nH]c2ncccc12)C(=O)O; NMePhe(4-F) = CN[C@@H](Cc1ccc(F)cc1)C(=O)O; Tiq1c(1S) = O=C(O)[C@H]1NCCc2ccccc21; Phg = N[C@H](C(=O)O)c1ccccc1; Tle = CC(C)(C)[C@H](N)C(=O)O; NMeS = CN[C@@H](CO)C(=O)O; Nva = CCC[C@H](N)C(=O)O
Quick reference for Avg. IC50, human hemolysis assay among some binders

binder	Avg. IC50, human hemolysis assay
[Nva]CY[NMeS][Phg][NMePhe(4-F)][NMeS]H[NMePhe(4-F)]GC-NH2 (linker 2-11 via mXylyl(3)) [R3075]	> 75 µM
Ac-C[Tle]Y[Trp(7-aza)]EY[NMeS]HC-NH2 (linker 1-9 via mXylyl″) [R3016]	> 13 µM
Ac-[Nva]CYNN[Tle]E[Trp(7-aza)]EYP[Phg][Tle]-NH2 (SMILES CCC[C@H](NC(C)=O)C(=O)N[C@@H](CS)C(=O)N[C@@H](Cc1ccc(O)cc1)C(=O)N[C@@H](CC(N)=O)C(=O)N[C@@H](CC(N)=O)C(=O)N[C@H](C(=O)N[C@@H](CCC(=O)O)C(=O)N[C@@H](Cc1c[nH]c2ncccc12)C(=O)N[C@@H](CCC(=O)O)C(=O)N[C@@H](Cc1ccc(O)cc1)C(=O)N1CCC[C@H]1C(=O)N[C@H](C(=O)N[C@H](C(N)=O)C(C)(C)C)c1ccccc1)C(C)(C)C) [R3004]	0.0535 µM
Ac-[Nva]C[Tiq1c(1S)]T[Trp(7-aza)]EY[NMeS]HC[Nva]-NH2 (linker 2-10 via mXylyl(3)) [R3122]	> 50 µM
